test system: HIV-1 (P2); assay: Antiviral drug assay in PBMC infected with clinical isolate HIV-1 P2 (supernatant p24 ELISA); type: cell-based; settings: clinical isolate HIV-1 P2, read-out: EC50
result_type: pEC50
Worth noting: pEC50 values are minus log10 of concentrations stated in mol/L.

// returns reported pEC50 for input Cc1cn([C@H]2C[C@H](N=[N+]=[N-])[C@@H](CO)O2)c(=O)[nH]c1=O [AZT, reference compound]
5.52

----------
system: CEM-SS T-lymphoblastoid cells; test: Toxicity testing in CEM-SS T-lymphoblastoid cells (tetrazolium reduction); type: cell-based; conditions: CEM-SS cells; read-out: 50% inhibitory concentration, IC50 (drug induced toxicity)
pIC50: −log10 of the molar value.
result_type: pIC50

// returns reported pIC50 for input Cc1cn([C@H]2C[C@H](N=[N+]=[N-])[C@@H](CO)O2)c(=O)[nH]c1=O [AZT, reference compound]
< 5.00
